test system: Sitophilus granarius; assay: Topical application test against Sitophilus granarius; assay type: in vivo; details: 120 h, 5 Days, 5000 ppm, read-out: percent mortality
experimental.readout: mortality at 5000 ppm (%)

structure	system.under.test	numeric.value
CCOc1nc(OP(=O)(OC)OC)c(C#N)s1	Sitophilus granarius	100
CCOc1nc(OP(=S)(OC)OC)c(C#N)s1	Sitophilus granarius	100
CCCCOc1nc(OP(=S)(OC)OC)c(C#N)s1	Sitophilus granarius	100
CCOc1nc(OP(=S)(OCC)OCC)c(C#N)s1	Sitophilus granarius	100
